# tested-on: KOR-1 (Mus musculus, UniProt P33534)
# Construct: expressed in transfected cells
# assay-overview: Competition binding against 125I-IBNtxA, KOR-1 CHO membranes
# protocol-conditions: vs 125I-IBNtxA (0.1 nM), cloned mouse receptor, ± SEM
measure: pKi
Scale for pKi: -log10 of concentration given in mol/L; no unit attached.

Consider the worked cases shown below.
>  <test-smiles>
Cc1cccc(C)c1OCCCCCN1CCN(C)CC1

>  <measure>
pKi

>  <value-reported>
5.26

$$$$
>  <test-smiles>
Cc1ccccc1OCCCCCCc1c(C)n[nH]c1C

>  <measure>
pKi

>  <value-reported>
5.60

$$$$
>  <test-smiles>
Cc1ccc(OCCCCCCc2c(C)n[nH]c2C)cc1

>  <measure>
pKi

>  <value-reported>
5.31

$$$$
>  <test-smiles>
Cc1ccccc1OCCCCCN1CCOCC1

>  <measure>
pKi

>  <value-reported>
5.22

$$$$
>  <test-smiles>
Cc1ccccc1OCCCCCN1CCCCC1

>  <measure>
pKi

>  <value-reported>
5.13

$$$$

Now for another entry.
Returns the measured pKi for the input molecule. Input: "COc1cccc(OCCCCCN2CCCCC2)c1"
5.16

---

Here, each record is paired with measured Ki data.
# tested-on: DOR-1 (Mus musculus, UniProt P32300)
# Construct: expressed in transfected cells
# assay-overview: Competition binding against 125I-IBNtxA, DOR-1 CHO membranes
# protocol-conditions: vs 125I-IBNtxA (0.1 nM), value in μM

>  <test-smiles>
Cc1cccc(C)c1OCCCCCN1CCN(C)CC1

>  <Ki>
> 30 µM

$$$$

Now for another entry.
Returns the measured Ki for the input molecule. Input: "COc1cccc(OCCCCCN2CCCCC2)c1"
> 30 µM

---

# tested-on: MOR-1 (Mus musculus, UniProt P42866)
# assay-overview: Competition binding against 125I-IBNtxA, MOR-1 CHO membranes
# Parameters: expressed in transfected cells
# protocol-conditions: vs 125I-IBNtxA (0.1 nM), value in μM, read-out: Binding Data-Ki / affinity MOR-1 (μOR)
Here, each record is paired with measured Ki data.

Consider the worked cases shown below.
>  <compound>
COc1cccc(OCCCCCN2CCCCC2)c1 [FMP6]

>  <Ki>
> 30 µM

$$$$
>  <compound>
Cc1ccccc1OCCCCCN1CCCCC1 [FMP1, 1-piperidino-5-(o-tolyloxy)pentane]

>  <Ki>
< 10 µM

$$$$

Item Cc1ccc(OCCCCCCc2c(C)n[nH]c2C)cc1 [FMP16] with MOR-1 (Mus musculus, UniProt P42866) - Ki?
< 10 µM

Request: Cc1cccc(C)c1OCCCCCN1CCN(C)CC1 [FMP21]
> 30 µM

Request: Cc1ccccc1OCCCCCCc1c(C)n[nH]c1C [FMP4]
3.2 µM

---

# tested-on: DOR-1 (Mus musculus, UniProt P32300)
# Construct: expressed in transfected cells
# assay-overview: Competition binding against 125I-IBNtxA, DOR-1 CHO membranes
# protocol-conditions: vs 125I-IBNtxA (0.1 nM), cloned mouse receptor, ± SEM
measure: Ki (µM)
Quick reminder: number only, in µM, skip the unit.

>  <test-smiles>
Cc1ccccc1OCCCCCN1CCCCC1

>  <measure>
Ki

>  <value-units>
µM

>  <value-reported>
17.9

$$$$
>  <test-smiles>
Cc1ccccc1OCCCCCN1CCOCC1

>  <measure>
Ki

>  <value-units>
µM

>  <value-reported>
12.8

$$$$
>  <test-smiles>
Cc1ccc(OCCCCCCc2c(C)n[nH]c2C)cc1

>  <measure>
Ki

>  <value-units>
µM

>  <value-reported>
9.06

$$$$

Item "Cc1ccccc1OCCCCCCc1c(C)n[nH]c1C" with DOR-1 (Mus musculus, UniProt P32300) - Ki?
8.14
